testedSystem: PTGER2 (EP2) (Homo sapiens, UniProt P43116)
Sequence (P43116 whole entry): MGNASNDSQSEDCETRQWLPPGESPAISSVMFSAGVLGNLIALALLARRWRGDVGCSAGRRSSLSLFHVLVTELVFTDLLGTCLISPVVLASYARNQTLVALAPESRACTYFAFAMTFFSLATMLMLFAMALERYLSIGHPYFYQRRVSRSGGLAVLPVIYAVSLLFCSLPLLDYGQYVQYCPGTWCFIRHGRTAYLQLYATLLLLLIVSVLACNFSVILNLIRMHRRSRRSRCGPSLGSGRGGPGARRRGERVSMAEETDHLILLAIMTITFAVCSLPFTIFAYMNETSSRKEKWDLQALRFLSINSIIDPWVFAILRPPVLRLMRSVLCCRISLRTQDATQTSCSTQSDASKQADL
methodSummary: hEP2 b-arrestin assay (PathHunter HEK 293 PTGER2 b-arrestin cells)
settings: antagonistic activity, beta-arrestin assay; read-out: hEP2 b-arr IC50
testReadout: IC50 (nM)

chemicalSmiles	IC50 / nM
CCOc1cc(-c2cc(NCCc3c(C)sc4c(C)ccc(Cl)c34)ncn2)sc1C(=O)O	14

(P) CCc1cc(-c2cc(NCCc3c(C)sc4c(C)cc(F)cc34)ncn2)ccc1C(=O)O
(Q) CCCOc1cc(-c2cc(NCCc3c(C)sc4c(C)cc(F)cc34)ncn2)ccc1C(=O)O
Inquiry: Pick one, P or Q : lowest reported IC50. Write the label of whichever entry you select.
Reply text: Q

###

testedSystem: EP2 receptor (Homo sapiens)
Construct: SF295 glioblastoma cells express high endogenous EP2 and no EP4
Sequence (P43116 whole entry): as above
methodSummary: hEP2 cAMP assay (SF295 glioblastoma cells, HTRF cAMP, PGE2 stimulation)
settings: antagonistic activity
testReadout: IC50 (nM)

chemicalSmiles	IC50, nM
COc1cc(F)c(F)c2c(CCNc3cc(-c4ccc(C(=O)O)c(OC5CCC5)c4)ncn3)c(C)oc12	111
Cc1sc2c(C)cc(F)cc2c1CCNc1cc(-c2cc(OCCO)c(C(=O)O)s2)ncn1	13
CCSc1cc(-c2cc(NCCc3c(C)sc4ccccc34)ncn2)ccc1C(=O)O	4
CCOc1cc(-c2cc(NCCc3c(C)oc4c(OC)ccc(F)c34)ncn2)ccc1C(=O)O	142
Cc1sc2c(C)cc(F)cc2c1CCNc1cc(-c2ccc(C(=O)O)c(OCC(C)C)c2)ncn1	39

(P) CCOc1cc(-c2cc(NCCc3c(C)oc4c(Cl)cccc34)ncn2)ccc1C(=O)O
(Q) CSc1cc(-c2cc(NCCc3c(C)oc4ccccc34)ncn2)cc(F)c1C(=O)O
Inquiry: Pick one, P or Q : lowest reported IC50. Write the label of whichever entry you select.
Reply text: Q
(Q: 1 nM, P: 39 nM)

(a) CCOc1cc(-c2cc(NCCc3c(C)sc4c(OC)ccc(F)c34)ncn2)ccc1CC(=O)O
(b) Cc1sc2c(C)cccc2c1CCNc1cc(-c2ccc(C(=O)O)c(SC3CCC3)c2)ncn1
(c) CCOc1cc(-c2cc(NCCc3c(C)sc4c(C)cc(F)cc34)ncn2)ccc1OCCC(=O)O
(d) COc1ccc(F)c2c(CCNc3cc(-c4ccc(C(=O)O)c(OC5CCC5)c4F)ncn3)c(C)sc12
Inquiry: Thanks in advance: please rank these 4 entries by IC50, highest to lowest. Order the labels as requested and list them.
Reply text: a, c, d, b

(A) CCOc1cc(-c2cc(NCCc3c(C)sc4c(C)cc(F)cc34)ncn2)ccc1NC(=O)C(=O)O
(B) CSc1cc(-c2cc(NCCc3c(C)sc4c(Cl)ccc(Cl)c34)ncn2)ccc1C(=O)O
(C) Cc1oc2ccccc2c1CCNc1cc(-c2ccc(C(=O)O)c(SC(C)C)c2)ncn1
(D) CCOc1cc(-c2cc(NCCc3c(C)sc4c(C)cccc34)ncn2)ccc1C(=O)O
Inquiry: Thanks in advance: please rank these 4 entries by IC50, highest to lowest. Order the labels as requested and list them.
Reply text: A, B, D, C
(A: 76 nM, B: 26 nM, D: 15 nM, C: 6 nM)

(P) CCOc1cc(-c2cc(NCCc3c(C)oc4c(Cl)cccc34)ncn2)ccc1CC(=O)O
(Q) CCOc1cc(-c2cc(NCCc3c(C#N)sc4c(C)cc(F)cc34)ncn2)ccc1C(=O)O
Inquiry: Pick one, P or Q : lowest reported IC50. Write the label of whichever entry you select.
Reply text: Q
(Q: 7 nM, P: 107 nM)

FYI, the data here is from patent US11325899B2.
